Target: human plasma kallikrein (Homo sapiens (Human))
Settings: human plasma kallikrein 25 pM, substrate 0.5 uM, 1 hour pre-incubation at room temperature, read at t=60 min
Listing of recorded pIC50 by entry.
By convention, pIC50 is the negative base-10 log of a molar concentration.

Which pIC50 value is on record for Cc1cc(N)nc(C)c1CNC(=O)c1cc(Cc2ccccc2)no1 [Example 3] ?
5.65

Report pIC50 for Cc1cc(N)nc(C)c1CNC(=O)c1cnn(Cc2ccnc(N3CCOCC3)c2)c1 [Example 69] please.
5.80

Find the recorded pIC50 belonging to Cc1cc(N)nc(C)c1CNC(=O)c1cnn(Cc2ccc(OCc3ccccc3)cc2)c1 [Example 94] and report it.
8.68

Which pIC50 is reported for this molecule? Cc1cc(N)nc(C)c1CNC(=O)c1cn(Cc2ccc(-n3cccn3)cc2)cn1 [Example 24]
6.62

Which pIC50 is listed for Cc1cc(N)nc(C)c1CNC(=O)c1cnn(Cc2cccc(C#N)c2)c1 [Example 81] ?
6.39

Continuing:
Entry under review: Cc1cc(N)nc(C)c1CNC(=O)c1cnn(Cc2csc(CC(=O)N(C)C)n2)c1 [Example 29] . Reported pIC50?
6.61

Requested read-out: pIC50. Entry: Cc1cc(N)nc(C)c1CNC(=O)c1cnn(Cc2ccc3c(c2)nnn3C)c1 [Example 101]
7.15

Quick one: pIC50 for Cc1cc(N)nc(C)c1CNC(=O)c1cnn(Cc2ncoc2-c2ccccc2)c1 [Example 35] ?
5.41

Fill in: pIC50 of Cc1cc(N)nc(C)c1CNC(=O)c1cnn(CC2CCCCC2)c1 [Example 88] is ___
5.74

---

Biological target: human plasma kallikrein (Homo sapiens (Human), UniProt P03952)
Sequence (P03952 whole entry, looked up): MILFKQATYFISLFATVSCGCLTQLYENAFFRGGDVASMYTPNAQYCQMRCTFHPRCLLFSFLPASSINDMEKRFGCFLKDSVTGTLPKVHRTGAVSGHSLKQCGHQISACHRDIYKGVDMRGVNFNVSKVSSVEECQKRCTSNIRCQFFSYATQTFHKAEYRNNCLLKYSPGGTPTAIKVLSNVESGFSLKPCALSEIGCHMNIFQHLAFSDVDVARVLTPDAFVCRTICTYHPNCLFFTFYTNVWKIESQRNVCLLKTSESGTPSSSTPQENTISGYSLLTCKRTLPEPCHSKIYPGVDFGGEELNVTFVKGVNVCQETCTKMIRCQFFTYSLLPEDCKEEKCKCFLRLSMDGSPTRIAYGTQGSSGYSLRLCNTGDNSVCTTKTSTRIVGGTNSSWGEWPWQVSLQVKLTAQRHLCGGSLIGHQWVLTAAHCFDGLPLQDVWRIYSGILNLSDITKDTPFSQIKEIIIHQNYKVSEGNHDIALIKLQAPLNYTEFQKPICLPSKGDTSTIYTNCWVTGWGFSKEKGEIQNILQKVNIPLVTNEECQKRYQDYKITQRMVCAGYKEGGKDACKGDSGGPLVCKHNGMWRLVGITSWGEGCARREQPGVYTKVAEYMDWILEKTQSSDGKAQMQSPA
Sequence (P03952 whole entry partner, looked up): as the sequence (P03952 whole entry, looked up) above
Settings: human plasma kallikrein 25 pM, substrate 0.5 uM, 1 hour pre-incubation at room temperature, read at t=60 min
pIC50: −log10 of the molar value.
Assign 1 (yes) whenever pIC50 does not fall below 7; assign 0 (no) whenever it does.

A selection of reference data follows.
Would you say Cc1cc(N)nc(C)c1CNC(=O)c1cnn(Cc2ccc(Cn3c(C)cc(=O)n3C)cc2)c1 [Example 141] shows pIC50 at minimum 7?
1 (yes)

Could you tell me if the measured pIC50 of Cc1cc(N)nc(C)c1CNC(=O)c1ncn(Cc2cccc(-n3cccn3)c2)n1 [Example 67] reaches 7 or more?
1 (yes)

Identify whether the reported pIC50 of the following molecule is 7 or greater: Cc1cc(N)nc(C)c1CNC(=O)c1cn(Cc2cccc3ccccc23)nn1 [Example 39]
0 (no)

Please indicate if the recorded pIC50 for Cc1cc(N)nc(C)c1CNC(=O)c1ncn(Cc2cccc(N3CCCC3)c2)n1 [Example 68] meets or exceeds 7.
1 (yes)

***
Answer whether pIC50 of Cc1cc(N)nc(C)c1CNC(=O)c1n[nH]c([C@@H](N)c2ccccc2)n1 [Example 123] is greater than or equal to 7.
0 (no)

Decide: pIC50 of Cc1cc(N)nc(C)c1CNC(=O)c1cnn(Cc2ccc3c(c2)N(C)C(=O)CO3)c1 [Example 151] >= 7?
1 (yes)

# check: pIC50 of Cc1cc(N)nc(C)c1CNC(=O)c1n[nH]c(Cc2ccccc2)n1 [Example 113] is greater than or equal to 7
0 (no)

Confirm if pIC50 reported for the molecule Cc1cc(N)nc(C)c1CNC(=O)c1ccn(S(=O)(=O)c2ccc3c(ccn3C)c2)c1 [Example 131] is 7 or above.
1 (yes)

Hi, just wondering whether Cc1cc(N)nc(C)c1CNC(=O)c1cn(Cc2ccccc2C#N)c2ccccc12 [Example 107] shows pIC50 of 7 or higher.
0 (no)

Threshold query (pIC50 >= 7) on Cc1cc(N)nc(C)c1CNC(=O)c1cc(C)n(S(=O)(=O)c2ccccc2)c1C [Example 72]
0 (no)

Determine whether measured pIC50 meets or exceeds 7 for Cc1cc(N)nc(C)c1CNC(=O)c1cnn(Cc2ccc(COc3ccccc3)cc2)c1 [Example 89]
1 (yes)

Tell me whether pIC50 is at least 7 here: Cc1cc(N)nc(C)c1CNC(=O)c1cnn(Cc2cccc(C(=O)N3CCCCC3)c2)c1 [Example 119]
0 (no)

Does Cc1cc(N)nc(C)c1CNC(=O)c1cnn(Cc2cccc3c2OCCCO3)c1 [Example 95] have a reported pIC50 of at least 7?
0 (no)

Item Cc1cc(N)nc(C)c1CNC(=O)c1cnn(C(CO)c2ccccc2)c1 (stereo not drawn) [Example 11] with pIC50 of 7 or above?
0 (no)

Does Cc1cc(N)nc(C)c1CNC(=O)c1ccn(Cc2ccccc2)c1 [Example 70] have a reported pIC50 of at least 7?
0 (no)

---

Target: human plasma kallikrein (Homo sapiens (Human))
Assay: biochemical
Recorded endpoint: IC50 (nM)
Field format: number, assumed nM, no unit text.

What value of measured IC50 is listed for Cc1cc(N)nc(C)c1CNC(=O)c1cnn(Cc2cccc(CO)n2)c1 ?
7000

Any idea what its IC50 is? The compound is Cc1cc(N)nc(C)c1CNC(=O)c1cnn(Cc2nc3ccccc3nc2C)c1
113

Now take the following compound into account.
Tell me the measured IC50 of Cc1cc(N)nc(C)c1CNC(=O)c1cnn(Cc2ccc3ncc(Cl)cc3c2)c1 , please.
0.4

---

Target: human plasma kallikrein (Homo sapiens (Human))
Conditions: human plasma kallikrein 25 pM, substrate 0.5 uM, 1 hour pre-incubation at room temperature, read at t=60 min
List of pIC50 values.
Scale note: pIC50 = -log10(concentration in M).

Which measured pIC50 value corresponds to Cc1cc(N)ncc1CNC(=O)c1cnn(Cc2ccccc2)c1 [Example 138] ?
4.20

Consider the compound Cc1cc(N)nc(C)c1CNC(=O)c1nnc(Cc2ccccc2)o1 [Example 4] and give its measured pIC50.
5.12

I'd like to know its pIC50. The compound in question is Cc1cc(N)nc(C)c1CNC(=O)c1cnn(Cc2ccc3ccccc3c2)c1 [Example 83]
7.74

Others:
Entry Cc1cc(N)nc(C)c1CNC(=O)c1cnn(Cc2ccc3c(c2)cc(C)n3C)c1 [Example 168] : reported pIC50 = ?
10.00

I am curious: what pIC50 value has been reported for Cc1cc(N)nc(C)c1CNC(=O)c1cnn(Cc2cc3ccccc3o2)c1 [Example 31] ?
6.84

Please report the recorded pIC50 for Cc1cc(N)nc(C)c1CNC(=O)c1cnn(Cc2ccc(NC(=O)NC3CC3)cc2)c1 [Example 112] .
6.64

---

Biological target: human plasma kallikrein (Homo sapiens (Human))
Details: human plasma kallikrein 25 pM, substrate 0.5 uM, 1 hour pre-incubation at room temperature, read at t=60 min
Mark yes (1) for IC50 under 0.03 µM, no (0) if at or over.

Quick check: IC50 of Cc1cc(N)nc(C)c1CNC(=O)c1cnn(Cc2ccc(N3CCCC3=O)cc2)c1 under 0.03 µM?
yes (1)

Regarding Cc1ccc2cc(Cn3cc(C(=O)NCc4c(C)cc(N)nc4C)cn3)ccc2n1 , kindly confirm whether its IC50 is beneath 0.03 µM.
yes (1)

Is IC50 of Cc1cc(N)nc(C)c1CNC(=O)c1cnn(Cc2ccc(C#N)cc2)c1 strictly below 0.03 µM?
no (0)

***
Decide: IC50 of Cc1cc(N)nc(C)c1CNC(=O)c1cn(Cc2ccc3ccccc3c2)nn1 strictly below 0.03 µM?
yes (1)

Determine if Cc1cc(N)nc(C)c1CNC(=O)c1cnn(Cc2ccc3ccn(C)c3c2)c1 shows IC50 strictly lower than 0.03 µM.
no (0)

In plain terms, does Cc1cc(C)c2cc(Cn3cc(C(=O)NCc4ccc(N)nc4C)cn3)c(C)nc2c1 come in under 0.03 µM for IC50?
yes (1)

---

Target: human plasma kallikrein (Homo sapiens (Human))
Conditions: human plasma kallikrein 25 pM, substrate 0.5 uM, 1 hour pre-incubation at room temperature, read at t=60 min
Recorded endpoint: IC50 (µM)
Give just the numeric value; µM need not be written.

Here's what some known entries look like.
Consider the compound Cc1nc(N)ccc1CNC(=O)c1cnn(Cc2cc(C(F)(F)F)c3cc(F)ccc3n2)c1 and give its measured IC50.
0.02

Can you look up the measured IC50 of Cc1cc(N)nc(C)c1CNC(=O)c1ccc(Oc2ccccc2)o1 for me?
35.5

Which IC50 reading was recorded for the compound Cc1cc(N)nc(C)c1CNC(=O)c1cn(Cc2cccc(C#N)c2)nn1 ?
1.8

---
Entry under review: Cc1nc(N)cc(OCC(N)=O)c1CNC(=O)c1cnn(Cc2ccccc2)c1 . Reported IC50?
0.072

---

Biological target: human plasma kallikrein (Homo sapiens (Human))
Settings: human plasma kallikrein 25 pM, substrate 0.5 uM, 1 hour pre-incubation at room temperature, read at t=60 min
Recorded endpoint: IC50

Sample records with IC50:
Requested field: IC50. Item: Cc1cn(S(=O)(=O)c2ccccc2)cc1C(=O)NCc1c(C)cc(N)nc1C
595 nM

What does the record list as IC50 for Cc1cc(N)nc(C)c1CNC(=O)c1cnn(S(=O)(=O)c2cccc(C#N)c2)c1 ?
5300 nM

Form field: reported IC50 of Cc1cc(N)nc(C)c1CNC(=O)c1cnn(Cc2ccc(C(=O)N3CCOCC3)cc2)c1
369 nM

New cases:
Bench note: what IC50 did Cc1cc(N)nc(C)c1CNC(=O)c1cnn(Cc2coc(-c3ccccc3)n2)c1 show?
41 nM

What IC50 value was documented for this molecule, Cc1nc(N)cc(Br)c1CNC(=O)c1cnn(Cc2ccccc2)c1 ?
37000 nM

Tell me the measured IC50 of Cc1nc(N)cc(Cl)c1CNC(=O)c1cnn(Cc2ccc(Cn3ccccc3=O)cc2)c1 , please.
0.2 nM

Consider the molecule shown here: Cc1cc(N)nc(C)c1CNC(=O)c1ccn(Cc2ccccc2)c1C What is its recorded IC50?
85800 nM

Would you mind telling me what IC50 value was observed for Cc1cc(N)nc(C)c1CNC(=O)c1cnn(Cc2ccc(C(=O)NC3CCS(=O)(=O)C3)cc2)c1 (centres unmarked) ?
2100 nM

Measured values drawn from patent US9290485B2 for this set.
